tested on: CAMK2B; conditions: concentration: 1 μM, replicates: in singlicate; n = 1
Measured endpoint: %Inh (%)
Numbers only, in %.

Cc1cc(-c2ccc3c(c2)CC[C@@H](N[C@@H](C)c2ccccc2)C3)cnc1N.Cl | 0
COc1cc2ncn(-c3cc(OCC4CCCO4)c(C(N)=O)s3)c2cc1OC (stereo not drawn) | 0

Would you mind listing %Inh for each of the following compounds?
1. Cc1ccccc1-n1cnc2c(N)ncnc21
2. O=C1NC(=O)C(N2CCc3ccccc32)=C1c1ccccc1Cl
3. Cc1cc(N2Cc3ccccc3C2)nc(Nc2ccc(S(=O)(=O)N3CCOCC3)cc2)n1.Cl

1. 14
2. 0
3. 0

Would you mind listing %Inh for each of the following compounds?
1. CC(=O)Nc1nc2cnc(Nc3cc(NC(=O)c4cccc(CCC#N)c4)ccc3C)nc2s1
2. COc1ccc(Nc2nccc(NCCNC(=O)Nc3ccccc3F)n2)cc1
3. Cc1ccc(NC(=O)Nc2cccc(Cl)c2)cc1-c1ccc(C(=O)Nc2ccncc2)cc1
4. O=S(=O)(c1ccc(-c2ccnc3[nH]ccc23)cc1)N1CCCC1

1: 0; 2: 0; 3: 0; 4: 12

* * *

test system: TYRO3; details: concentration: 1 μM, replicates: in singlicate; n = 1
Measured endpoint: %Inh
In your response, put the unit directly after the numeric value.

Worked examples follow.
Cc1c(O)cccc1Nc1ccnc2ccc(C(F)(F)F)cc12.Cl | 3%
Cc1nnc(-c2ccc3occ(-c4ccc(S(C)=O)cc4)c3c2)[nH]1 (stereo not shown) | 0%
Cc1c(Cn2ccn3c(=O)cc(N4CCOCC4)nc23)cccc1C(F)(F)F | 0%

Let's switch to this compound now.
Kindly state the measured %Inh obtained for COc1cc2ncn(-c3cc(OCC4CCCO4)c(C(N)=O)s3)c2cc1OC (stereo not shown) with TYRO3.
0%

* * *

system: WNK3; settings: concentration: 1 μM, replicates: in singlicate; n = 1
Returns: string. Value is Met if measured %Inh is below 6%, and Not met if it is greater than or equal to it.

Identify whether the compound COc1cccc(NC(=O)NC2CCN(c3ccnc(Nc4ccc(F)cc4)n3)C2)c1 (stereo not shown) records %Inh below 6%.
Not met

Identify whether the compound `O=C(O)COc1ncnc2cc(-c3ccc4[nH]ncc4c3)sc12` records %Inh below 6%.
Met

Identify whether the compound `Cc1ccc(NC(=O)Nc2cccc(Cl)c2)cc1-c1ccc(C(=O)Nc2ccncc2)cc1` records %Inh below 6%.
Not met

* * *

test system: HCK; conditions: concentration: 1 μM, replicates: in singlicate; n = 1
Measured endpoint: %Inh (%)
One number for each entry, in %.

Worked examples follow.
COc1ccccc1CNC(=O)c1cc(C(=O)c2ccccc2C)c[nH]1 | 0
CS(=O)(=O)c1ccc(-c2nc3n(c2-c2ccncc2)CCC3)cc1 | 0
COc1cc(Nc2nccc(N3CCC(NC(=O)Nc4cc(C)ccc4C)C3)n2)cc(OC)c1OC (centres unmarked) | 0
CC(C)(C)c1ccc(C(=O)Nc2cn3cc(-c4cccnc4)ccc3n2)cc1 | 44
Cc1cc(N2Cc3ccccc3C2)nc(Nc2ccc(S(=O)(=O)N3CCOCC3)cc2)n1.Cl | 0

Would you mind listing %Inh for each of the following molecules?
1. O=C(Nc1n[nH]c2nc(-c3nccs3)c(Br)cc12)C1CCCC1
2. CC(C)(C)c1ccc(C(=O)Nc2cn3cc(Cl)ccc3n2)cc1

1: 0; 2: 1

Would you mind listing %Inh for each of the following molecules?
1. Cn1cncc1-c1ccc2ncnc(Nc3ccc(OCc4ccccc4)cc3)c2c1
2. Cc1ccc(NC(=O)Nc2cccc(Cl)c2)cc1-c1ccc(C(=O)Nc2ccncc2)cc1
3. Cc1cccc(-c2nc(C)cc(Nc3ccncc3)n2)n1

1. 0
2. 0
3. 0

Bench note: what %Inh did `O=C(Nc1ccccc1)Nc1cccc(Oc2ccc3nccn3n2)c1` show?
24

* * *

I'd appreciate it if you could supply %Inh values for the items below.
system: CAMK2G; conditions: concentration: 1 μM, replicates: in singlicate; n = 1
Answers are plain numbers, in %.

Would you mind listing %Inh for each of the following compounds?
1. O=C(Nc1ccccc1)Nc1cccc(Oc2ccc3nccn3n2)c1
2. Cc1ccccc1-n1cnc2c(N)ncnc21
3. COc1ccccc1CNC(=O)c1cc(C(=O)c2ccccc2C)c[nH]1
4. Cl.Oc1ccc(-c2nc(-c3ccccc3)[nH]c2-c2ccncc2)cc1
5. Cc1cccc(-c2nc(Nc3ccncc3)c3ccccc3n2)n1

1. 3
2. 4
3. 12
4. 29
5. 0

* * *

test system: PRKD3
I'd appreciate it if you could supply pKd values for the items below.
Give bare numbers, as −log10 of the molar value.

Worked examples follow.
Cc1cccc(-c2nc(C)cc(Nc3ccncc3)n2)n1 | 6.00
COc1ccc2nc(-c3cccc(C)n3)nc(Nc3ccncc3)c2c1 | 6.31
Cc1cccc(-c2nc(Nc3ccc4[nH]ncc4c3)c3ccccc3n2)n1 | 7.96

Let's switch to this compound now.
Bench note: what pKd did `Cc1cccc(-c2cc(Nc3ccncc3)c3ccccc3n2)n1` show?
6.68

* * *

system: NEK11; details: concentration: 1 μM, replicates: in singlicate; n = 1
Measured endpoint: %Inh (%)
One number for each entry, in %.

Would you mind listing %Inh for each of the following compounds?
1. CCCc1ccc(S(=O)(=O)NC2CCN(c3ccnc(Nc4ccc(F)cc4)n3)C2)cc1 (stereo not drawn)
2. Cc1ccc(NC(=O)Nc2cccc(Cl)c2)cc1-c1ccc(C(=O)Nc2ccncc2)cc1
3. O=C(Nc1n[nH]c2cc(-c3cccc(F)c3F)ccc12)C1CC1
4. Cc1c(O)cccc1Nc1ccnc2ccc(C(F)(F)F)cc12.Cl
5. Cn1ccc2ncnc(Oc3cccc(C(=O)Nc4ccccc4)c3)c21
6. Cc1ccc(-c2cc(-c3c[nH]nc3-c3ccccn3)ccn2)cc1
7. COc1ccc2nc(-c3cccc(C)n3)nc(Nc3ccncc3)c2c1
8. Cc1cccc(-c2nc(Nc3ccc4[nH]ncc4c3)c3ccccc3n2)n1

1
0
0
0
0
30
7
7

Bench note: what %Inh did `COc1ccc(Nc2nccc(-c3cccc(NC(=O)c4cc5cc(F)ccc5[nH]4)c3)n2)cc1` show?
16

* * *

tested on: CSNK1E; details: concentration: 1 μM, replicates: in singlicate; n = 1
Measured endpoint: %Inh (%)
One number for each entry, in %.

Cl.c1ccc(-c2n[nH]cc2-c2ccnc(-c3ccc(CN4CCOCC4)cc3)c2)nc1 | 37
Cc1cccc(-c2nc(Nc3ccc4[nH]ncc4c3)c3ccccc3n2)n1 | 28

Would you mind listing %Inh for each of the following compounds?
1. Cc1cccc(-c2cc(Nc3ccncc3)c3ccccc3n2)n1
2. COc1ccc(CNC(=O)NC2CCN(c3ccnc(Nc4cc(OC)c(OC)c(OC)c4)n3)C2)cc1 (stereo not drawn)
3. Cc1ccccc1-n1cnc2c(N)ncnc21
4. COC(=O)c1c(-c2ccccc2)c2cc(C(=O)O)ccc2c(=O)n1Cc1ccccc1
5. Cn1ccc2ncnc(Oc3cccc(C(=O)Nc4ccccc4)c3)c21
6. Cl.O=C(Nc1cccc(-c2nn3ncccc3c2-c2ccnc(Nc3cccnc3)n2)c1)c1c(F)cccc1F
7. COc1ccc(C2=C(Nc3cccc(C(=O)O)c3)C(=O)NC2=O)cc1

1. 50
2. 14
3. 11
4. 0
5. 1
6. 24
7. 0

Would you mind listing %Inh for each of the following compounds?
1. Clc1cc(Cl)cc(Nc2ccnc(Nc3cc(Cl)cc(Cl)c3)n2)c1
2. COc1ccc(Nc2nccc(-c3cccc(NC(=O)c4cc5cc(F)ccc5[nH]4)c3)n2)cc1
3. CC1=C(C(=O)Nc2cc3cn[nH]c3cc2F)C(c2ccc(C(F)(F)F)cc2)CC(=O)N1 (stereo not drawn)
4. CCCc1ccc(S(=O)(=O)NC2CCN(c3ccnc(Nc4ccc(F)cc4)n3)C2)cc1 (stereo not drawn)
5. Fc1cc(Cl)ccc1Nc1ccnc2cc(I)ccc12
6. Cc1cccc(-c2nc(C)cc(Nc3ccncc3)n2)n1

57
33
25
25
35
42

* * *

Reported Kd, PRKD1.
Give bare numbers, in nM.

Worked examples follow.
COc1ccc2nc(-c3cccc(C)n3)nc(Nc3ccncc3)c2c1 | 51
Cc1cccc(-c2nc(Nc3ccc4[nH]ncc4c3)c3ccccc3n2)n1 | 19

Let's switch to this molecule now.
Bench note: what Kd did `Cc1cccc(-c2nc(Nc3ccncc3)c3ccccc3n2)n1` show?
9.7

* * *

test system: PAK2; settings: concentration: 1 μM, replicates: in singlicate; n = 1
I'd appreciate it if you could supply %Inh values for the items below.
In your response, put the unit directly after the numeric value.

Worked examples follow.
COc1ccc(Nc2nccc(NCCNC(=O)Nc3ccccc3F)n2)cc1 | 0%
CC1=C(C(=O)Nc2cc3cn[nH]c3cc2F)C(c2ccc(C(F)(F)F)cc2)CC(=O)N1 (stereo not drawn) | 4%

Bench note: what %Inh did `COc1cccc(-c2cc(-c3c[nH]nc3-c3ccccn3)ccn2)c1` show?
0%

* * *

tested on: MTOR; conditions: concentration: 1 μM, replicates: in singlicate; n = 1
Measured endpoint: %Inh (%)
Give bare numbers, in %.

Worked examples follow.
Clc1cc(Cl)cc(Nc2ccnc(Nc3cc(Cl)cc(Cl)c3)n2)c1 | 18
Nc1ncnc2[nH]c(-c3ccccc3)nc12 | 9
CCn1c(-c2cccnc2O)nc2cnccc21 | 0
Cc1ccc(NC(=O)Nc2cc(C(C)(C)C)nn2-c2ccccc2)cc1 | 30
CCCc1ccc(S(=O)(=O)NC2CCN(c3ccnc(Nc4ccc(F)cc4)n3)C2)cc1 (stereo not shown) | 0

Would you mind listing %Inh for each of the following compounds?
1. Cc1cccc(-c2nc(Nc3ccc4[nH]ncc4c3)c3ccccc3n2)n1
2. COc1cc(Nc2nccc(N3CCC(NC(=O)Nc4cc(C)ccc4C)C3)n2)cc(OC)c1OC (stereo not shown)
3. Cc1csc(-c2nc(Nc3ccncc3)c3ccccc3n2)n1

1: 0; 2: 10; 3: 74

Would you mind listing %Inh for each of the following compounds?
1. COc1ccccc1-c1ccc2c(NC(=O)C3CC3)n[nH]c2n1
2. Cl.Oc1ccc(-c2nc(-c3ccccc3)[nH]c2-c2ccncc2)cc1
3. Cc1c(Cn2ccn3c(=O)cc(N4CCOCC4)nc23)cccc1C(F)(F)F
4. Cc1ccc(NC(=O)Nc2cccc(Cl)c2)cc1-c1ccc(C(=O)Nc2ccncc2)cc1
5. Cc1cccc(-c2nc(Nc3cccc(C(N)=O)c3)c3ccccc3n2)n1

[30, 32, 15, 9, 35]

Would you mind listing %Inh for each of the following compounds?
1. Cc1cccc(-c2nc(-c3ccc(S(C)(=O)=O)cc3)sc2-c2ccnc(NCCc3ccccc3)c2)c1
2. Cc1cc(NCC(c2ccccc2)c2ccccc2)nc(NCc2ccc(C(F)(F)F)cc2)n1
3. CS(=O)(=O)c1ccc(-c2nc3n(c2-c2ccncc2)CCC3)cc1
4. COc1ccc2nc(-c3cccc(C)n3)nc(Nc3ccncc3)c2c1
5. Cn1ccc2ncnc(Oc3ccc(NC(=O)Nc4ccccc4)cc3)c21
6. Cn1cncc1-c1ccc2ncnc(Nc3ccc(OCc4ccccc4)cc3)c2c1

1. 0
2. 1
3. 0
4. 43
5. 16
6. 30
